These data points were gathered from patent US12174198B2.

target: FUS-SNAP condensates (Homo sapiens, UniProt P35637); experiment: Fluorescence imaging of dye partitioning in FUS-SNAP condensates (I-in, I-out); type: physicochemical; conditions: outside FUS-SNAP condensate; background corrected; one day of experiments
Sequence (P35637 whole entry): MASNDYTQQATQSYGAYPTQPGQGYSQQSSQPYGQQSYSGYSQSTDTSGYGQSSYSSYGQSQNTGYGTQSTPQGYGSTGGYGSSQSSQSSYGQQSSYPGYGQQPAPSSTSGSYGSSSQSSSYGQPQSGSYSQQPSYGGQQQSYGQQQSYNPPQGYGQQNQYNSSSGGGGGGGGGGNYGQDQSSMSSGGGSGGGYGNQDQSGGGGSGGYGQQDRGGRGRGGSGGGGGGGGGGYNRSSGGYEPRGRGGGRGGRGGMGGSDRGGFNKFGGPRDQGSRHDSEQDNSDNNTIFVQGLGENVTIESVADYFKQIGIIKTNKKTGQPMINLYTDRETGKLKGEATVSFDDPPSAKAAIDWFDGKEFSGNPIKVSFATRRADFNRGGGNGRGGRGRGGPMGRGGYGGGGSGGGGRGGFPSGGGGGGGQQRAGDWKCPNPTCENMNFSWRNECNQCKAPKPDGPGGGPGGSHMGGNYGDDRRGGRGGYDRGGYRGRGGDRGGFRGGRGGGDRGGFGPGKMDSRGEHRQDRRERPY
Structures can show the parent of a compound that is named as a salt.
measuredEndpoint: Intensity Outside (Dye-No Dye)

molecule	Intensity Outside (Dye-No Dye)
N=C(N)c1ccc(-c2cc3ccc(C(=N)N)cc3[nH]2)cc1	108.6
CC/N=c1/cc2oc3cc(NCC)c(C)cc3c(-c3ccccc3C(=O)NCCOCCOCCN)c-2cc1C.O=C(O)C(F)(F)F	−10.3
CC(=O)Oc1ccc2c(c1)Oc1cc(OC(C)=O)ccc1C21OC(=O)c2ccccc21 [Dye 9, Fluorescein diacetate]	934.8
O=C([O-])c1ccccc1C1=c2cc3c4c(c2Oc2c1cc1c5c2CCCN5CCC1)CCC[N+]=4CCC3 [Dye 17, Rhodamine 101 inner salt]	802.5
O=C1OC2(c3ccc(O)cc3Oc3cc(O)ccc32)c2ccccc21	3680.6

P. CC(=O)c1cc2cc3c4c(c2oc1=O)CCCN4CCC3
Q. O=C1OC2(c3ccc(O[C@@H]4O[C@H](CO)[C@H](O)[C@H](O)[C@H]4O)cc3Oc3cc(O[C@@H]4O[C@H](CO)[C@H](O)[C@H](O)[C@H]4O)ccc32)c2ccccc21 [Dye 12, Fluorescein di(β-D-galacto-pyranoside)]
Ask | Please indicate which item has the smaller measured Intensity Outside (Dye-No Dye): P versus Q Select an item and report its label.
Reply | Q
